Test system: SN12C renal
Test: NCI-60 one-dose screen, 48 h
Conditions: 10 µM unless noted
Description: Growth inhibition of the SN12C human tumor cell line is measured as a screen for anti-cancer activity. Cells are grown in 96 well plates and exposed to the test compound for 48 hours. Compounds are tested at a single concentration, which is 10^-5 M for most compounds. The reported endpoint is percent growth (GI% or GIPRCNT), where numbers from 0 - 100% represent growth inhibition, and numbers from -100% - 0 represent cell death. For example, a value of 40 represents 60% growth inhibition. […]
The panel holds about 83,000 compounds, 20% with a hit somewhere; the sample as a whole holds those more often. Activity calls are given as the source filed them. Rule for the calls: active = growth percent below 10; inactive = the rest.
Reply using exactly one outcome from true (1) = active, false (0) = inactive

For orientation, consider the following solved cases.
O=C1c2cc3c(cc2-c2c1c1ccc(F)cc1c(=O)n2CCCNCCO)OCO3
true (1)
O=CNc1ccc2c(c1)Cc1cccc(NC=O)c1-2
false (0)
CCOC(=O)n1cc(-c2nonc2-c2cn(C)c3ncccc23)c2ccccc21
false (0)
COc1cccc(/C=C2\SC(=Nc3ccc(NC(C)=O)cc3)NC2=O)c1OC
false (0)

Now, please, on to the next compound.
Query block: Fill in: this test's call for O=S(=O)(Nc1ccc(I)cc1F)c1ccc(-c2cnc(C3CC3)o2)cc1 is ___
Result block: false (0)

* * *

System: NCI-H23 lung
Test: NCI-60 one-dose screen, 48 h (100 = growth as untreated, 0 = no growth, -100 = all killed)
Details: 10 µM unless noted
The panel holds about 83,000 compounds, 20% with a hit somewhere; the sample as a whole holds those more often.
valueType: growth (%)
Supply the numeric figure in %, leaving out any unit text.

Check out these entries, answers already filled in.
CC1C(/C=N/Nc2ccccc2)C(C#N)(C#N)C1(C#N)C#N (stereo unspecified)
78.6
Oc1cccc(-c2nc(N3CCOCC3)c3c4c(sc3n2)CCCC4)c1
56.3
O=C1CC(=NCC(=O)n2c(-c3ccccc3)nc3ccccc32)NN1
91.8
CC(=O)Nc1ccc(-n2c(O)c(/C=N/NC(=O)Cc3ccccc3Nc3c(Cl)cccc3Cl)sc2=S)cc1
95.4
COc1ccc(-n2nc(C)c3c(Oc4ccc(NC(=O)Nc5c(Cl)cccc5Cl)cc4)ncnc32)cc1
98.3
Cn1cc(C(=O)c2nc(-c3c[nH]c4ccc(F)cc34)no2)c2cc(F)ccc21
88
COc1ccc(/C=C/C(=O)c2ccc(O)c(CN3CCN(c4cc5c(cc4F)c(=O)c(C(=O)O)cn5C4CC4)CC3)c2)cc1
37.7
O=C(Cc1ccc(/C=C/C(=O)c2ncc[nH]2)cc1)Nc1ccc(F)cc1
24.2

Query block: Write down growth measured for item CCOc1ccc(-n2nc(C(=O)Nc3cc(OC)c(OC)c(OC)c3)nc2-c2cc(OC)c(OC)c(OC)c2)cc1
Result block: 85

Query block: Write down growth measured for item c1ccc(-c2c(-c3ccccc3)[n+](Cc3ccc4ccccc4c3)c(-c3ccc(-c4nc5ccccc5s4)cc3)n2Cc2ccc3ccccc3c2)cc1
Result block: -82.1

* * *

Tested on: SK-OV-3 ovarian
Experiment: NCI-60 one-dose screen, 48 h (100 = growth as untreated, 0 = no growth, -100 = all killed)
Details: 10 µM unless noted
Compounds without any hit were thinned out: in the full panel of roughly 83,000, 20% have a hit.
Each item that follows carries a reported growth.
Supply the numeric figure in %, leaving out any unit text.

Check out these entries, answers already filled in.
CCCCn1c(-c2ccc(C(=O)O/N=C(\N)c3ccc4ccccc4c3)cc2)nc(-c2ccccc2)c1-c1ccccc1
99
c1ccc2[nH]c(-c3ccc(Nc4nc(N5CCCC5)nc5[nH]ncc45)cc3)nc2c1
22.2
C=C(C)[C@@H]1CC[C@]2(C(=O)OC)CC[C@]3(C)[C@H](CC[C@@H]4[C@@]5(C)C/C(=C/c6ccc(OC)cc6)C(=O)C(C)(C)[C@@H]5CC[C@]43C)[C@@H]12
102
COc1ccc(O)c(N=Nc2nccs2)c1
85.2
CSc1ccc(-c2ccccc(=O)c2O)cc1
11.8
c1csc(C2=NN3C(C2)c2ccccc2OC3c2ccncc2)c1 (centres undefined)
93.8

Query block: Tell me its growth on SK-OV-3 ovarian: Cc1cc2c3ccccc3ccc2[n+]2ccccc12
Result block: 71.5

Query block: Tell me its growth on SK-OV-3 ovarian: CCN(CC)c1ccc2c(c1)Oc1nc(N)c(C#N)c(N)c1C2Sc1ccc(SC)cc1 (centres undefined)
Result block: -4.96

Query block: Tell me its growth on SK-OV-3 ovarian: COc1cc2c(cc1-c1c(C)noc1C)ncc1nc(C3CCOCC3)n([C@@H](C)COC(F)F)c12
Result block: 2.74

Query block: Tell me its growth on SK-OV-3 ovarian: O=C1CSC(=S)N1CCc1ccc(O)cc1
Result block: 99.2

Query block: Tell me its growth on SK-OV-3 ovarian: O=C(CCN1C(=O)/C(=C/c2ccc(Cl)cc2)SC1=S)NCCCN1CCOCC1
Result block: 88.2

Query block: Tell me its growth on SK-OV-3 ovarian: O=C1c2cc3c(cc2-c2c1c1ccc(F)cc1c(=O)n2C[C@H](O)[C@@H](O)[C@H](O)CO)OCO3
Result block: -20.8

Query block: Tell me its growth on SK-OV-3 ovarian: O=C(CCl)Oc1ccc(-c2ccccc2)c(Br)c1
Result block: 104

Query block: Tell me its growth on SK-OV-3 ovarian: Brc1ccc(-c2csc(Nc3ccccn3)n2)cc1
Result block: 82.7

Query block: Tell me its growth on SK-OV-3 ovarian: C=C(C)[C@@H]1CC[C@]2(C(=O)OC)CC[C@]3(C)[C@H](CC[C@@H]4[C@@]5(C)C/C(=C/c6cccc(I)c6)C(=O)C(C)(C)[C@@H]5CC[C@]43C)[C@@H]12
Result block: 93.9

Query block: Tell me its growth on SK-OV-3 ovarian: COc1ccc(C(=O)/C=C/c2cccnc2Nc2cc(OC)c(OC)c(OC)c2)cc1
Result block: 24.7

Query block: Tell me its growth on SK-OV-3 ovarian: CCN(CC)c1ccc(-c2cc(-c3cc(OC)c(OC)c(OC)c3)nc(N3CCOCC3)c2C#N)cc1
Result block: 51.8

Query block: Tell me its growth on SK-OV-3 ovarian: OCCN1CCN(c2nc(Nc3ccc(-c4nc5ccccc5[nH]4)cc3)c3cn[nH]c3n2)CC1
Result block: -95.9

Query block: Tell me its growth on SK-OV-3 ovarian: O=C1NC(=S)NC(=O)C1CC(=O)n1c(-c2ccccc2)nc2ccccc21
Result block: 90.4

* * *

Tested on: SK-MEL-2 melanoma
Test: NCI-60 one-dose screen, 48 h (100 = growth as untreated, 0 = no growth, -100 = all killed)
Details: 10 µM unless noted
The panel holds about 83,000 compounds, 20% with a hit somewhere; the sample as a whole holds those more often.
valueType: growth (%)
Supply the numeric figure in %, leaving out any unit text.

O=C1CSC(=S)N1CCc1ccc(O)cc1
103
O=c1cc(CSc2nnc(SCc3cc(=O)oc4c3ccc3ccccc34)o2)c2ccc3ccccc3c2o1
87.8
O=C1Nc2c(ccc(Cl)c2Cl)/C1=C\c1cc(C(F)(F)F)cc(C(F)(F)F)c1
38.4
COc1cc(C(=O)Oc2ccccc2OC(=O)c2cc(OC)c(OC)c(OC)c2)cc(OC)c1OC
115

Query block: Tell me its growth on SK-MEL-2 melanoma: COc1ccc(-c2nc3cc(C(=O)Nc4cc(OC)c(OC)c(OC)c4)ccc3n2C2CCCCC2)cc1
Result block: 95.6

Query block: Tell me its growth on SK-MEL-2 melanoma: Cn1c(NCCc2ccc(O)c(O)c2)nc2c1c(=O)n(Cc1ccc(Cl)c(Cl)c1)c(=O)n2C
Result block: 91.2

Query block: Tell me its growth on SK-MEL-2 melanoma: COc1cc(C)c(C2C(C#N)=C(N)Oc3n[nH]c(-c4cccs4)c32)cc1C(C)C (centres undefined)
Result block: 102

* * *

System: EKVX NSCLC
Test: NCI-60 one-dose screen, 48 h (100 = growth as untreated, 0 = no growth, -100 = all killed)
Details: 10 µM unless noted
The panel holds about 83,000 compounds, 20% with a hit somewhere; the sample as a whole holds those more often.
valueType: growth (%)
Supply the numeric figure in %, leaving out any unit text.

COc1ccc(-c2cc(-c3ccc(Nc4ccnc5cc(Cl)ccc45)cc3)nc(N3CCOCC3)n2)cc1
90.4

Query block: Tell me its growth on EKVX NSCLC: O=C(COc1ccc(/C=C2\COc3ccccc3C2=O)cc1)Nc1nccs1
Result block: 102

Query block: Tell me its growth on EKVX NSCLC: CSc1nc(NCCN2CCOCC2)c(C#N)c(-c2cccc([N+](=O)[O-])c2)n1
Result block: 87.3

* * *

Tested on: CCRF-CEM leukemia
Assay: NCI-60 one-dose screen, 48 h (100 = growth as untreated, 0 = no growth, -100 = all killed)
Conditions: 10 µM unless noted
Compounds without any hit were thinned out: in the full panel of roughly 83,000, 20% have a hit.
Each item that follows carries a reported growth.
Supply the numeric figure in %, leaving out any unit text.

Check out these entries, answers already filled in.
Cn1cc(-c2nonc2-c2c[nH]c3ccc(F)cc23)c2cccnc21
83
CN1CCN(c2ccc(Nc3c4ccccc4nc4ccccc34)cc2)CC1
105
N#CCCN=Nc1c(O)[nH]c2ccc([N+](=O)[O-])cc12
103
CC(=O)c1nc2ccccc2n1CC(=O)c1cccc(Cl)c1
5.08
COc1ccc(CCNc2nc3c(c(=O)n(Cc4ccc(Br)cc4)c(=O)n3C)n2C)cc1OC
99.7
Cc1cn2c(/C=C3/C(=O)Nc4c3ccc3ccccc43)c(C(F)(F)F)nc2s1
16.4
CCCCCCN(CCCCCC)C(=N)c1ccnc2ccccc12
-4.39

Now, please, on to the next compound.
Query block: Write down growth measured for item CCCOc1ccc2nc(NC(=O)OC)[nH]c2c1
Result block: 7.62
